Tested on: Inhibin beta A chain (activin A)
Assay: small molecules binding activin A – biochemical, small-molecule microarray, 635 nm fluorescence scan, primary screen (AID 1107);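 also: mouse activin A protein probed at 4.33 µg/mL on printed slides; score merges bound-protein fluorescence near 667 nm with spot signal-to-noise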
Settings: INHBA, higher = more signal
Assign classes using reported composite z-score values and the ranges class 1 (below 0.3), class 2 (0.3 to below 0.8), class 3 (0.8 or more), please.

Molecule: CN(C)C(=O)[C@@]1(Cc2ccccc2CN=[N+]=[N-])COC(c2ccc(OCCCO)cc2)=N1
Class name: class 2
//
Molecule: COc1ccc([Si](C)(C)[C@@H]2[C@@H](CC(=O)N3Cc4ccccc4C[C@H]3CO)O[C@]3(C(=O)N(Cc4ccc(N5CCOC5=O)cc4)c4ccccc43)[C@H]2C)cc1
Class name: class 3
//
Molecule: CC(C)C(=C=CC[C@H](O)c1ccccc1OCCO)C[C@H](O)COCc1ccccc1
Class name: class 2
//
Molecule: COc1ccc(C(=O)Nc2cccc(CN3C(=O)[C@@]4(O[C@@H](CC(=O)N5CCC[C@H]5CO)[C@H]([Si](C)(C)c5ccc(OC)cc5)[C@H]4C)c4ccccc43)c2)cc1
Class name: class 1
//
Molecule: COCCCNC(=O)[C@@]1(CCS(=O)(=O)c2ccccc2)COC(c2ccc(OCCCO)cc2)=N1
Class name: class 3
//
Molecule: O=C(NCCN1CCOCC1)[C@@H]1c2ccccc2C(=O)N(Cc2ccc(OC(F)(F)F)cc2)[C@H]1c1ccc(CO)cc1
Class name: class 1

// next entry
Q: The entry to classify is `COC(=O)C(CC#Cc1ccc2c(c1)[C@]1(C(=O)N2)[C@H](C(=O)N2CCc3cc(OC)c(OC)cc3C2)[C@H]2C(=O)O[C@H](c3ccccc3)[C@H](c3ccccc3)N2[C@@H]1c1ccccc1OCCO)C(=O)OC` ; which class holds it?
Ans: class 1

---

Please go through the items and note down their composite z-score.
Biological target: Follistatin-related protein 3 (Homo sapiens) (UniProt O95633)
Sequence (O95633 whole entry, looked up): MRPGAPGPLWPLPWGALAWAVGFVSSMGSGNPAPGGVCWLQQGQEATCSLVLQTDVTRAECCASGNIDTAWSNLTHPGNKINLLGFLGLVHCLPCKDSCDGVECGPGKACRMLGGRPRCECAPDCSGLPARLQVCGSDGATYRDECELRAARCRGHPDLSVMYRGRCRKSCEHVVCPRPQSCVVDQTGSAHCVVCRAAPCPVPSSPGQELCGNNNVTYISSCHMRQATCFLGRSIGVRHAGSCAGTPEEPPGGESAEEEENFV
Assay: compounds binding follistatin-related protein 3 – biochemical, small-molecule microarray, 635 nm fluorescence, primary screen (AID 1105);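 also: score merges emission near 667 nm and signal to noise per printed spot across three slides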
Conditions: FSTL3 binding, higher = more signal

Below, 7 compounds whose answers are already recorded.
Compound: C=C(COC)/C(=C/C[C@H](OC(C)=O)c1ccccc1OCCO)c1cc(C(=O)OC)ccc1OC
composite z-score: 0.186

Compound: C=CCNC(=O)[C@H]1[C@@H]2C(=O)O[C@@H](c3ccccc3)[C@@H](c3ccccc3)N2[C@@H](c2ccc(OCCO)cc2)[C@]12C(=O)Nc1ccc(C#CC3(O)CCCCCC3)cc12
composite z-score: 1.29

Compound: CC(C)=CCCC(C)=CC(O)C1C=CC2C(=O)NC(=O)C2N1Nc1ccccn1 (stereo not drawn)
composite z-score: 1.55

Compound: COCCCNC(=O)[C@@]1(CCS(=O)(=O)c2ccccc2)COC(c2ccc(OCCCO)cc2)=N1
composite z-score: -0.0346

Compound: CC1=C([C@H](O)CCc2ccccc2)[C@H](CO)n2c(=O)n(-c3ccccc3)c(=O)n2C1
composite z-score: -0.0401

Compound: COc1ccc([Si](C)(C)[C@@H]2[C@@H](CC(=O)N3Cc4ccccc4C[C@H]3CO)O[C@]3(C(=O)N(Cc4ccc(N5CCOC5=O)cc4)c4ccccc43)[C@H]2C)cc1
composite z-score: 1.24

Compound: CC(C)C(CO)N1C(=O)[C@@H]2C3C(=O)OCCC/C=C\[C@H]3OC23C=CCN(Cc2ccccc2)C(=O)[C@@H]13 (stereo partly drawn)
composite z-score: -0.794

# context switch: different compound, same composite z-score
The compound listed as `Cc1ccc(S[C@]2(C(=O)NC(C)C)CC(=O)N(C3CCCCC3)[C@@H]2c2ccc(CO)cc2I)cc1` has a reported composite z-score of 1.19

---

Biological target: Neurogenic locus notch homolog protein 2 (Homo sapiens)
Test: small molecules binding Notch2 protein – biochemical, small-molecule microarray, 635 nm fluorescence, stem cell growth factors, primary screen (AID 1073)
Settings: higher = more signal
Cut-off 0.7 on composite z-score, inclusive. At or above means MET; below means NOT MET.

Before answering, review these 8 worked examples.
Compound: COc1ccc([Si](C)(C)[C@@H]2[C@@H](CC(=O)N(CCO)Cc3ccccc3)O[C@]3(C(=O)N(Cc4ccc(I)cc4)c4ccccc43)[C@H]2C)cc1
Class name: NOT MET
//
Compound: O=C(NCC(O)CO)C1N=C(c2ccc(OCCCO)cc2)N(c2ccccc2)O1 (configuration not stated)
Class name: NOT MET
//
Compound: C[C@@H]1NC(=O)C([C@@H](C)OCc2ccccc2)NC(=O)[C@@]23C(=O)N[C@@H](Cc4ccccc4)C2[C@H](C)[C@@]2(C)O[C@H]2C3/C=C/C/C=C\CNC1=O (some centres not stated)
Class name: NOT MET
//
Compound: COc1ccc(C(O)C2C=CC3C(=O)N(c4ccccc4)C(=O)C3N2Nc2ccc(C#N)cc2)cc1OCc1ccccc1 (configuration not stated)
Class name: MET
//
Compound: COCCOC(=O)N1C(=O)[C@@]2(c3cc(C#CCC(C(=O)OC)C(=O)OC)ccc31)[C@H](C(=O)Nc1nc3ccccc3s1)[C@H]1C(=O)O[C@H](c3ccccc3)[C@H](c3ccccc3)N1[C@@H]2c1ccc(O)cc1
Class name: MET
//
Compound: [N-]=[N+]=Nc1ccccc1[C@H]1OC(c2ccc(OCCCO)cc2)=N[C@@]1(Cc1ccccc1)C(=O)NCC(O)CO (some centres not stated)
Class name: MET
//
Compound: CN1C(=O)C2C(C3CC3)C=C3CN(Cc4cccc(Cl)c4)[C@@H]([C@@H](O)Cc4ccccc4)C3C2C1=O (some centres not stated)
Class name: MET
//
Compound: CCCCC(=C=CC[C@H](O)c1ccc(CO)o1)CCO
Class name: NOT MET

Q: Given the entry `COC(=O)[C@H](Cc1ccccc1)N1CC2=CCCC=C[C@@H]2[C@H]1[C@H](O)Cc1ccccc1` , answer whether its composite z-score meets or surpasses 0.7.
Ans: NOT MET

Q: Given the entry `O=C1C=C(c2ccccc2)C(=O)C2=C1CC([C@H]1Oc3ccccc3S(=O)(=O)N3CCC[C@@H]13)=CC2` , answer whether its composite z-score meets or surpasses 0.7.
Ans: NOT MET

Q: Given the entry `COc1ccc([Si](C)(C)[C@H]2[C@H](CC(=O)N3Cc4ccccc4C[C@H]3CO)O[C@@]3(C(=O)N(C)c4ccccc43)[C@@H]2C)cc1` , answer whether its composite z-score meets or surpasses 0.7.
Ans: NOT MET

Q: Given the entry `C=C(CCCC)/C(=C/C[C@H](OC(=O)c1ccncc1)c1ccc(OCCO)cc1)c1cnc2ccccc2c1` , answer whether its composite z-score meets or surpasses 0.7.
Ans: MET

Q: Given the entry `COC(=O)[C@@]1(Cc2ccccc2)[C@H]2c3cc(C(=O)N(C)C)n(Cc4ccc(C(F)(F)F)nc4)c3C[C@H]2CN1C(=O)c1ccccc1` , answer whether its composite z-score meets or surpasses 0.7.
Ans: MET

---

Test: blockers of DNA damage checkpoint Chk1 activation – imaging, HeLa, hydroxyurea, phospho-Chk1 antibody, percent positive cells, primary screen (AID 1186)
Details: hydroxyurea-induced phospho-Chk1 immunofluorescence imaging, higher = more signal
Please go through the items and note down their z-score.
One number for each entry.

Below, 6 molecules whose answers are already recorded.
Molecule: C=CC1c2cc(O)c(OC)cc2CCN1C (centres undefined)
Recorded result: 0.298

Molecule: COC(=O)[C@@]1(Cc2ccc(OC)cc2)[C@H]2c3cc(C(=O)N4CCCC4)n(Cc4ccc(Cl)c(C(F)(F)F)c4)c3C[C@H]2CN1C(=O)c1ccccc1
Recorded result: -0.842

Molecule: Cc1ccc(S[C@]2(C(=O)NCC(F)(F)F)CC(=O)N(Cc3ccccc3C(F)(F)F)[C@@H]2c2ccc(CO)cc2)cc1
Recorded result: 0.145

Molecule: COC(=O)[C@@]1(Cc2ccc(F)cc2)[C@H]2c3cc(C(=O)N4CCCC4)n(Cc4cc(F)cc5c4OCOC5)c3C[C@H]2CN1C(=O)c1ccccc1
Recorded result: -0.142

Molecule: C=CCNC(=O)[C@H]1[C@@H]2C(=O)O[C@@H](c3ccccc3)[C@@H](c3ccccc3)N2[C@@H](c2ccccc2OCCO)[C@]12C(=O)N(C(=O)OCCOC)c1ccc(C#Cc3ccc(OC)cc3)cc12
Recorded result: 0.0629

Molecule: CCCCC(O)C1C=CC2C(=O)N(c3ccccc3)C(=O)C2N1Nc1ccc(C#N)cc1 (centres undefined)
Recorded result: 0.194

I'm hoping you can list z-score for every molecule here, please.
1. CCCC[C@H]1C[C@@H]1[C@@H]1N(C(C)=O)[C@H](c2cccc(OC)c2)CC12CC2
2. COc1ccc([Si](C)(C)[C@H]2[C@H](CCO)O[C@@]3(C(=O)N(Cc4ccc(NC(=O)[C@H](C)O)cc4)c4ccccc43)[C@@H]2C)cc1
3. CC(=O)OCC1C2CC[C@H]3C(OCc4ccc(F)cc4C(F)(F)F)OC[C@]4(C)[C@H]3C2=C(CN4C(=O)OC(C)(C)C)[C@H](C)C1COC(C)=O (some centres undefined)
4. NC(=O)N1C(=O)C2C(C1=O)C1C=C(CCCO)C2C(C2CC2)N1Cc1sc2ccccc2c1Cl (centres undefined)
5. CCCCC(O)C1C=CC2C(=O)N(c3ccccc3)C(=O)C2N1Nc1ccccc1 (centres undefined)
6. COC(=O)C1=CC(CCCO)=CC(c2cccs2)N(Cc2cc3c(cc2Br)OCO3)C=C1C(=O)OC (centres undefined)

Ans:
1: 0.368; 2: -0.704; 3: 0.657; 4: -0.273; 5: 0.385; 6: 0.132

I'm hoping you can list z-score for every molecule here, please.
1. C=CCOC(=O)[C@H]1[C@@H]2C(=O)O[C@@H](c3ccccc3)[C@@H](c3ccccc3)N2[C@@H](c2ccc(OCCOC(=O)[C@H]3C[C@H]4C(=O)N[C@@H](CC(C)C)C(=O)N4[C@H]3c3ccc(O)cc3)cc2)[C@]12C(=O)Nc1ccccc12
2. C=C(CCCC)/C(=C/C[C@H](OC(=O)c1ccncc1)c1cccc(OCCO)c1)c1cnc2ccccc2c1

Ans:
1: 0.109; 2: 0.218
